Data provenance: patent US20080058351A1

# PROTOCOL_TEXT: Human liver microsome metabolic stability assay (separate incubations)
# Assay type: in vitro ADME
# RECORDED_CONDITIONS: pooled human liver microsomes; 1 μM test compound, 1.0 mg/mL human liver microsomes

[
  {
    "QUERY_SMILES": "CC(=O)N(C)c1cccc(-c2ccnc3c(C(=O)c4cccs4)cnn23)c1",
    "half-life at 1 μM, min": 59
  }
]

###

# ASSAYED_SYSTEM: benzodiazepine receptor of the rat cerebral cortex
# PROTOCOL_TEXT: Benzodiazepine receptor binding, competition with [3H]flunitrazepam
# RECORDED_CONDITIONS: [3H]flunitrazepam 0.4 nM, 4° C., 60 minutes
pKi: −log10 of the molar value.
Let's look at some compounds and their measured pKi.
MEASUREMENT_KIND: pKi

[
  {
    "COMPOUND": "CC(=O)N(C)c1cccc(-c2ccnc3c(C(=O)c4cccs4)cnn23)c1 [Indiplon]",
    "MEASUREMENT_KIND": "pKi",
    "OBSERVED": 8.52
  },
  {
    "COMPOUND": "CC(=O)N(C)c1cccc(-c2ccnc3c(C(=O)c4cccs4)cnn23)c1 [Compound 1]",
    "MEASUREMENT_KIND": "pKi",
    "OBSERVED": 8.62
  }
]

###

# ASSAYED_SYSTEM: benzodiazepine site on the GABAA receptor (rat cortex)
# PROTOCOL_TEXT: Inhibition of [3H]flunitrazepam binding to rat cortex membranes
# RECORDED_CONDITIONS: read-out: IC50 for displacing [3H]flunitrazepam binding to rat cortex
MEASUREMENT_KIND: IC50

[
  {
    "QUERY_SMILES": "Cc1nnc2n1-c1ccc(Cl)cc1C(c1ccccc1Cl)=NC2",
    "MEASUREMENT_KIND": "IC50",
    "OBSERVED": "0.5 nM"
  },
  {
    "QUERY_SMILES": "CN1C(=O)CN=C(c2ccccc2)c2cc(Cl)ccc21",
    "MEASUREMENT_KIND": "IC50",
    "OBSERVED": "17 nM"
  },
  {
    "QUERY_SMILES": "Cc1ccc(-c2nc3ccc(C)cn3c2CC(=O)N(C)C)cc1",
    "MEASUREMENT_KIND": "IC50",
    "OBSERVED": "26 nM"
  },
  {
    "QUERY_SMILES": "CN1C(=O)CN=C(c2ccccc2F)c2cc([N+](=O)[O-])ccc21",
    "MEASUREMENT_KIND": "IC50",
    "OBSERVED": "114 nM"
  }
]

###

# PROTOCOL_TEXT: Co-incubation of Compound 1 and Indiplon with human liver microsomes
# Assay type: in vitro ADME
# RECORDED_CONDITIONS: human liver microsomes, 0.2 μM each, 2.0 mg/ml human microsomes (FIG. 1 panel C)

[
  {
    "QUERY_SMILES": "CC(=O)N(C)c1cccc(-c2ccnc3c(C(=O)c4cccs4)cnn23)c1",
    "UNITS_OF_MEASURE": "h",
    "half-life at 0.2 μM": 1.94
  }
]
